# tgt: Recombinant GST-Tie2 (Homo sapiens)
# Construct: GST
# Sequence (Q02763 23-1124): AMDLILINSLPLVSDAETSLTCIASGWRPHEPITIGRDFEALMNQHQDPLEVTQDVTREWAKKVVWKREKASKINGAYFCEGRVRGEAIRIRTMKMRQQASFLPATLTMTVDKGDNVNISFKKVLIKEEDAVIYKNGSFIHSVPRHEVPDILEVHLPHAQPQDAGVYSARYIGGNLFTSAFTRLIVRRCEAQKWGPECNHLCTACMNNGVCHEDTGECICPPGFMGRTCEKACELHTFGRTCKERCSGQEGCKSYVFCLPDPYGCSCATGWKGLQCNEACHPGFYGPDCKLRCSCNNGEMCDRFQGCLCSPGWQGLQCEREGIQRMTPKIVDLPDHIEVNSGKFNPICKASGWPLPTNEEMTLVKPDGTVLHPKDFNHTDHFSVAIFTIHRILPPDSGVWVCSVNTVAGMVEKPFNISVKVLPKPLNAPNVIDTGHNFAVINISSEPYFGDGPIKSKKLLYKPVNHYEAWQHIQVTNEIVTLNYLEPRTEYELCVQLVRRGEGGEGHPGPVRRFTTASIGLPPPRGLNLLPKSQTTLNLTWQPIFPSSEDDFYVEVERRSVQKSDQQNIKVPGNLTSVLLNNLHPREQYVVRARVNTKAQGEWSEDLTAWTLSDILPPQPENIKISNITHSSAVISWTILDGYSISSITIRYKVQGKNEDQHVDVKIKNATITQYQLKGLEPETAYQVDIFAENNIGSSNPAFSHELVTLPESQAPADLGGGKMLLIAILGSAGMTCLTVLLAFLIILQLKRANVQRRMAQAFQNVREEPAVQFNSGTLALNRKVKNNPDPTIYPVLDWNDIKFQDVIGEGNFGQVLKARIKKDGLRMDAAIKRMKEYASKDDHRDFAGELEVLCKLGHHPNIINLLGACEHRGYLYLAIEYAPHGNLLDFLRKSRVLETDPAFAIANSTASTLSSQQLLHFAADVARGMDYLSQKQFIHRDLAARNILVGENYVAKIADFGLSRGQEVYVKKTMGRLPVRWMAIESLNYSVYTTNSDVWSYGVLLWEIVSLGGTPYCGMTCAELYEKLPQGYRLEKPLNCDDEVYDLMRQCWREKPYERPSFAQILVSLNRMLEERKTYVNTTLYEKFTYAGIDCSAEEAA
# experimental protocol: Tie2 Fluorescence Polarization Kinase Activity Assay (TIE2-FP)
# condition description: 200 μM ATP, activated Tie2, fluorescence polarization
measured parameter: pIC50
Numbers only, as −log10 of the molar value.

Task item: Requested read-out: pIC50. Entry: Nc1ncnc2scc(-c3ccc(NC(=O)Nc4cc(C(F)(F)F)ccc4F)cc3)c12 [Example 276]
Reply: 8.74

----------
# tgt: GST-TIE2 (intracellular domains of human TIE2) (Homo sapiens, UniProt Q02763)
# Construct: made in house
# Sequence (Q02763 762-1104): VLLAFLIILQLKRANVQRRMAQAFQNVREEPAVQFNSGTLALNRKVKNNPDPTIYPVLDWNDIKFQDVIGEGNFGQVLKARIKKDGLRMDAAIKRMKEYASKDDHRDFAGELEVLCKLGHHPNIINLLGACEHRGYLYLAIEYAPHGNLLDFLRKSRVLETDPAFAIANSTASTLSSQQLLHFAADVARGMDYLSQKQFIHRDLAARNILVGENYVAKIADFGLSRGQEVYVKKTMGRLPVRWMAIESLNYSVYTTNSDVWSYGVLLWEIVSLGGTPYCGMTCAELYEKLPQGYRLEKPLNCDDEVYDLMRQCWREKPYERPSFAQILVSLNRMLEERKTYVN
# experimental protocol: TIE-2 Enzyme assay (TIE2-E), LANCE method
# Assay type: biochemical
# condition description: GST-TIE2, 80 uM ATP, D1–15 peptide; read-out: TIE2-E pIC50 (converted)
Please respond with reported IC50 for every item in the list.

Answered cases to consult:
[[record]]
molecule = "CNS(=O)(=O)c1cccc(-c2oc3ncnc(N)c3c2-c2ccc(-c3ccccc3)cc2)c1 [Example 200]"
meas_value = "100 to 1000 nM"

[[record]]
molecule = "N#Cc1cccc(-c2oc3ncnc(N)c3c2-c2ccc(NC(=O)Nc3cc(C(F)(F)F)ccc3F)cc2)c1 [Example 8]"
meas_value = "< 100 nM"

[[record]]
molecule = "NC(=O)Nc1cccc(-c2oc3ncnc(N)c3c2-c2ccc(-c3ccccc3)cc2)c1 [Example 184]"
meas_value = "100 to 1000 nM"


Need IC50 for each of these molecules.
1. Nc1ncnc2oc(-c3ccc4[nH]nnc4c3)c(-c3ccc(-c4ccccc4)cc3)c12 [Example 196]
2. Nc1ncnc2oc(-c3ccc4[nH]cnc4c3)c(-c3ccc(-c4ccccc4)cc3)c12 [Example 198]

Reply:
1. 100 to 1000 nM
2. 100 to 1000 nM
